pKi values by entry
target: Cathepsin B (Homo sapiens, UniProt P07858); experiment: Inhibitory activity against cathepsin B receptor in human liver
pKi: −log10 of the molar value. Square brackets hold non-standard residues; d marks the D form. Peptide text beside a SMILES is read from it. * marks the point of attachment. d2Thi = N[C@H](Cc1cccs1)C(=O)O; Bn = c1ccc(C*)cc1; Ms = CS(=O)(=O)*
observable: pKi

1) CS(=O)(=O)N[C@H](Cc1cccs1)C(=O)N[C@H](C=O)Cc1ccccc1 (Ms-[d2Thi]-Phe-aldehyde) | 7.64
2) CCS(=O)(=O)N[C@H](COCc1ccccc1)C(=O)N[C@H](C=O)Cc1ccccc1 | 7.35
3) CC(OCc1ccccc1)[C@@H](NS(C)(=O)=O)C(=O)N[C@H](C=O)Cc1ccccc1 (stereo partly specified) | 7.36
4) CS(=O)(=O)N[C@H](COCc1ccccc1)C(=O)N[C@H](C=O)Cc1ccc(OCc2ccccc2)cc1 (Ms-[dS](Bn)-Tyr(Bn)-aldehyde) | 7.35
5) CS(=O)(=O)N[C@H](CSCc1ccccc1)C(=O)N[C@H](C=O)Cc1ccccc1 (Ms-[dC](Bn)-Phe-aldehyde) | 7.39
6) CS(=O)(=O)N[C@H](Cc1ccccc1)C(=O)N[C@H](C=O)Cc1ccccc1 (Ms-[dF]-Phe-aldehyde) | 6.92

====

We begin with a simple list: items and their reported inhibition.
molecular target: Prothrombin (Homo sapiens) (UniProt P00734); test: Inhibitory activity against human plasma thrombin at 10 uM; assay type: cell-free
Square brackets hold non-standard residues; d marks the D form. Peptide text beside a SMILES is read from it. * marks the point of attachment. d2Thi = N[C@H](Cc1cccs1)C(=O)O; Bn = c1ccc(C*)cc1; Ms = CS(=O)(=O)*
observable: inhibition (%)

1. CS(=O)(=O)N[C@H](Cc1ccccc1)C(=O)N[C@H](C=O)Cc1ccccc1 (Ms-[dF]-Phe-aldehyde) | 0
2. CC(OCc1ccccc1)[C@@H](NS(C)(=O)=O)C(=O)N[C@H](C=O)Cc1ccccc1 (stereo partly drawn) | 0
3. CS(=O)(=O)N[C@H](CSCc1ccccc1)C(=O)N[C@H](C=O)Cc1ccccc1 (Ms-[dC](Bn)-Phe-aldehyde) | 7
4. CS(=O)(=O)N[C@H](Cc1cccs1)C(=O)N[C@H](C=O)Cc1ccccc1 (Ms-[d2Thi]-Phe-aldehyde) | 0
5. CS(=O)(=O)N[C@H](COCc1ccccc1)C(=O)N[C@H](C=O)Cc1ccccc1 | 0
6. CS(=O)(=O)N[C@H](COCc1ccccc1)C(=O)N[C@H](C=O)Cc1ccc(OCc2ccccc2)cc1 (Ms-[dS](Bn)-Tyr(Bn)-aldehyde) | 0
7. CS(=O)(=O)N[C@H](COCc1ccccc1)C(=O)N[C@H](C=O)CCCCNS(=O)(=O)c1ccccc1 | 0
8. CCS(=O)(=O)N[C@H](COCc1ccccc1)C(=O)N[C@H](C=O)Cc1ccccc1 | 9
